Target: Aβ(1-40) (Homo sapiens, UniProt P05067)
Construct: […]; purchased Bachem, Torrance, Calif
Sequence (P05067 672-711 limits assumed): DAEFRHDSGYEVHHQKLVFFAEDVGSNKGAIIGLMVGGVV
Assay: BASSR (Beta-Amyloid Self-Seeding Radioassay), inhibitors of self-seeded amyloid fibril growth
Type: biochemical
In this section, each of the molecules is paired with its reported IC50.
observed property: IC50

>>> observed_measurement("O=C(O)c1ccccc1Nc1ccc(CCc2ccc(Cl)c(C(F)(F)F)c2)cc1")
"> 100 µM"
>>> observed_measurement("O=C(O)c1cc(C(F)(F)F)ccc1Nc1ccc(CCc2ccc(Cl)c(Cl)c2)cc1")
"> 100 µM"

###

In this section, each of the compounds is paired with its reported log10 of IC50.
Target: Aβ(1-40) (Homo sapiens, UniProt P05067)
Construct: […]; purchased Bachem, Torrance, Calif
Test: BASST (Beta-Amyloid Self-Seeding, Thioflavin T), inhibitors of self-seeded amyloid fibril growth
Type: biochemical
Conditions: 30 μM soluble Aβ(1-40), 37° C., 3 to 5 hours, thioflavin T fluorescence; replicate values; letter = synthetic lot; read-out: BASST (IC50 = μM)
observed property: log10 of IC50 (log10 of the value in µM)

>>> observed_measurement("COc1ccc(CCc2ccc(Nc3ccccc3C(=O)O)cc2)c(OC)c1")
1.00
>>> observed_measurement("CN(C)c1ccc(CCCc2ccc(Nc3ccccc3C(=O)O)cc2)cc1")
0.48
>>> observed_measurement("O=C(O)c1ccccc1Nc1ccc(-c2ccc(F)c(F)c2)c(Cl)c1")
1.70
>>> observed_measurement("CS(=O)(=O)NC(=O)c1ccccc1Nc1ccc(CCCc2ccc(Cl)c(Cl)c2)cc1")
0.48
>>> observed_measurement("O=C(O)c1ccccc1Nc1ccc(CCc2ccc(F)c(C(F)(F)F)c2)cc1")
0.32
>>> observed_measurement("O=C(O)c1cc([N+](=O)[O-])ccc1Nc1ccc(CCCCCc2ccc(Cl)c(Cl)c2)cc1")
-0.05
>>> observed_measurement("O=C(O)c1ccccc1Nc1ccc(CCc2ccc(Cl)c(Cl)c2)cc1 [Example 118, monopotassium]")
0.78
>>> observed_measurement("O=C(O)c1ccccc1Nc1ccc(CCc2ccc(Cl)c(Cl)c2)cc1 [Example 117, monosodium]")
0.48
>>> observed_measurement("O=C(O)c1ccccc1Nc1ccc(CCc2ccc(F)c(F)c2)cc1")
0.30
